Values compiled from patent US20060058315A1.

Assay target: human 11βHSD1 (Homo sapiens, UniProt P28845)
Construct: a construct containing full-length human 11βHSD1 enzyme (in pCMVHyg)
Sequence (P28845 whole entry): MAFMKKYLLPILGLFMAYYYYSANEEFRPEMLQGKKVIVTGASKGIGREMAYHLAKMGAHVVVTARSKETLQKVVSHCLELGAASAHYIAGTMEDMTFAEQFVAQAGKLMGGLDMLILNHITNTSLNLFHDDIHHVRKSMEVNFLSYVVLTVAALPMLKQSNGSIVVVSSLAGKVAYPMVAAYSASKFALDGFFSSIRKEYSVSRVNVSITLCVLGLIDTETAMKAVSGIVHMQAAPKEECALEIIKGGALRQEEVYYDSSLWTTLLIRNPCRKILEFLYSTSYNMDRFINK
Assay comment: HeLa GRE4-βGal/11βHSD1 cell reporter assay (β-galactosidase production)
Assay context: HeLa GRE4-βGal/11βHSD1 cells, cortisone 1 μM, overnight incubation, absorbance at 570 nm
Result type: IC50 (nM)

CC(C)Oc1ccc(C(=O)CS(=O)(=O)N(C(C)C)C(C)C)cc1 | 60

1: CN(C)S(=O)(=O)CC(=O)c1cnccn1
2: CN(C)S(=O)(=O)CC(=O)c1ccccn1
Identify the item whose IC50 is the smaller number: 1 or 2 Use the label to indicate which entry you chose. 1
(1: 47 nM, 2: 72 nM)
